Give measured GI50 for each item. Keep answers brief.
Tested on: OVCAR-8
Test: NCI tumour cell line growth inhibition, 48 h
Active and inactive are the calls of the source. Cut-off read from the data, not from the text of the source: active = GI50 up to about 1.1 µM and inactive = higher.

Data request: # query: GI50 of entry COc1ccc(/C=C2\C(=O)N(C3OC(COC(C)=O)C(OC(C)=O)C(OC(C)=O)C3OC(C)=O)c3ccccc3N=C2N)cc1 (stereo unspecified)
Data returned: 19.4 µM (inactive)

Data request: # query: GI50 of entry "CC(C)(N)CO[C@H]1C[C@H]2CC[C@@]1(C)C2(C)C"
Data returned: 20.6 µM (inactive)

Data request: # query: GI50 of entry "COc1cc2oc(=O)cc(C)c2c(OC)c1O"
Data returned: > 100 µM (inactive)

Data request: # query: GI50 of entry "O=C(O)/C=C/c1c2ccc(=O)c(O)c-2oc2c(O)c(O)ccc12"
Data returned: 40.1 µM (inactive)

Data request: # query: GI50 of entry CC(=O)Nc1ccc(C(=O)NN2C(=O)C(Cl)C2c2ccccc2)cc1 (stereo unspecified)
Data returned: > 100 µM (inactive)

Data request: # query: GI50 of entry "C#Cc1ccccc1N1C(=O)C=CC1=O"
Data returned: > 100 µM (inactive)

Data request: # query: GI50 of entry "COc1cc(C(=O)Oc2c(C(C)=O)sc3c2c(=O)n(-c2ccccc2)c(=S)n3-c2ccccc2)cc(OC)c1OC"
Data returned: 18.8 µM (inactive)

Data request: # query: GI50 of entry "CC1=C[C@@H]2[C@@H](CC(CO)=C[C@H]3[C@@H]4C(C)(C)[C@]4(OCC(C)C)[C@H](OCC(C)C)[C@@H](C)[C@]23O)C1=O"
Data returned: 1.73 µM (inactive)

Data request: # query: GI50 of entry Cc1cc(C)c2c(=O)n(CC(O)CN3CCN(CCOCCO)CC3)sc2n1 (stereo unspecified)
Data returned: 19.9 µM (inactive)

Data request: # query: GI50 of entry "CN(C)/C=N/S(=O)(=O)c1nn2c(C=O)c(-c3ccc(-c4ccccc4)cc3)nc2s1"
Data returned: 5.28 µM (inactive)

Data request: # query: GI50 of entry CC(NC(=O)/C(=C/c1ccccc1)NC(=O)c1ccccc1)C(=O)O (stereo unspecified)
Data returned: 50 µM (inactive)

Data request: # query: GI50 of entry CCCC[S+]([O-])CCC(N)P(=O)(O)O (stereo unspecified)
Data returned: > 100 µM (inactive)

Data request: # query: GI50 of entry COC(=O)C1=C(OC)C(=P2(c3ccccc3)CC(c3ccccc3)=C2c2ccccc2)C(C(=O)OC)=C1C(=O)OC (stereo unspecified)
Data returned: > 95.7 µM (inactive)

Data request: # query: GI50 of entry "N#Cc1c(N)nc(Nc2cccc3ccccc23)c(C#N)c1C#N"
Data returned: 5.25 µM (inactive)

Data request: # query: GI50 of entry "Clc1cc(-c2csc(Cl)c2)cs1"
Data returned: > 100 µM (inactive)

Data request: # query: GI50 of entry COc1ccc(C2[C@@H](Cl)C(=O)N2c2ccc(OC)cc2)cc1 (stereo partly specified)
Data returned: 46.2 µM (inactive)

Data request: # query: GI50 of entry "Fc1cccc2c1cc1ccc3cccc4ccc2c1c34"
Data returned: > 100 µM (inactive)

Data request: # query: GI50 of entry "O=C(NNC(=S)NCc1ccccc1)c1csc(NC(=S)NC2CCCCC2)n1"
Data returned: 39.4 µM (inactive)

Data request: # query: GI50 of entry "COCOc1cc(OC)c(Br)cc1C/C(=N/O)C(=O)OC"
Data returned: > 100 µM (inactive)

Data request: # query: GI50 of entry "CCOC(=O)C1=C(N)N(c2ccccc2)/C(=C2\SC(=S)N(c3ccc(C)cc3)C2=O)S1"
Data returned: 33.3 µM (inactive)

Data request: # query: GI50 of entry O=S(=O)(c1ccccc1)n1c(C(O)c2ccncc2)cc2ccccc21 (stereo unspecified)
Data returned: 50.6 µM (inactive)

----------
Tested on: SNB-78
Assay: NCI tumour cell line growth inhibition, 48 h
Calls of active or inactive are those of the source. Cut-off read from the data, not from the text of the source: active = GI50 up to about 1.1 µM and inactive = higher.
parameterMeasured: GI50

Data request: # query: GI50 of entry "COc1cc2ccnc([C@@H](OC(=O)c3ccccc3)c3ccc(OC)c(OC)c3OC)c2cc1OC"
Data returned: 50.5 µM (inactive)

Data request: # query: GI50 of entry "Cc1ccc2c(c1)c(=O)c1c(NCCN(C)C)ccc3nnn2c31"
Data returned: 6.22 µM (inactive)

Data request: # query: GI50 of entry C#CCNC(=O)NCCCC(NC(C)=O)C(=O)NCc1ccccc1 (configuration not stated)
Data returned: > 100 µM (inactive)

Data request: # query: GI50 of entry CSC(C1c2ccccc2N(c2ccc(C)cc2)c2[nH]c(=O)n(C)c(=O)c21)S(=O)(=O)c1ccc(C)cc1 (configuration not stated)
Data returned: > 100 µM (inactive)

Data request: # query: GI50 of entry "COc1ccc(CNc2nc3ccc(C(F)(F)F)cc3nc2-c2ccccc2)cc1OC"
Data returned: > 100 µM (inactive)

Data request: # query: GI50 of entry CCC(C)(O)c1cn(-c2ccc(S(=O)(=O)O)cc2)nn1 (configuration not stated)
Data returned: > 100 µM (inactive)

Data request: # query: GI50 of entry "Nc1ccn(CCO)c(=O)n1"
Data returned: > 100 µM (inactive)

----------
System: SK-MEL-5
Experiment: NCI tumour cell line growth inhibition, 48 h
The source made the active and inactive calls. No stated cut-off is given here; in the data, active = GI50 up to about 1.1 µM and inactive = higher.
Select the correct class. Options are T for active, F for inactive and nothing else.

Data request: # lookup: test call for "O=C(/C=C/c1ccccc1)CC(=O)CCC(=O)Nc1ccc(Cl)cc1"
Data returned: F

Data request: # lookup: test call for "O=C(CP(=O)(c1ccccc1)c1ccccc1)c1cccc(C(=O)CP(=O)(c2ccccc2)c2ccccc2)c1"
Data returned: F

Data request: # lookup: test call for "CN(C)CCNC(=O)c1cccc2c(Nc3ccc(S(N)(=O)=O)cc3)c3ccccc3nc12"
Data returned: F

Data request: # lookup: test call for "CC(=O)/C(=C\Nc1c(C)n(C)n(C)c1=O)C(=O)c1ccccc1"
Data returned: F

Data request: # lookup: test call for "CN(C)/C=N/S(=O)(=O)c1nn2c(C=O)c(-c3ccc(-c4ccccc4)cc3)nc2s1"
Data returned: F

Data request: # lookup: test call for "CN(C)CCC[N+]1=Nc2cccc3cccc(c23)N1"
Data returned: F

Data request: # lookup: test call for "O=C1Nc2ccccc2[C@]12C[C@H]2c1ccccn1"
Data returned: F

Data request: # lookup: test call for "CCCc1c2c3ccccc3nc-2nc2ccccn12"
Data returned: F

Data request: # lookup: test call for CC(C(N)=O)N(C)C(=O)c1cnc2ccccc2c1 (configuration not stated)
Data returned: F

Data request: # lookup: test call for COc1cc(C(C)c2cc3c(cc2OCCN)OCO3)cc(OC)c1OC (configuration not stated)
Data returned: F

Data request: # lookup: test call for "C/C(=C\CO)CC/C=C(\C)CNc1c(F)c(F)c(F)c(F)c1F"
Data returned: F

Data request: # lookup: test call for "C/C(=N\NC(=S)NC1CCCC1)c1ccccn1"
Data returned: T

Data request: # lookup: test call for "O=[N+]([O-])c1c(F)c(F)c2c(c1F)Nc1ccccc1S2"
Data returned: F

Data request: # lookup: test call for CCCC[S+]([O-])CCC(N)P(=O)(O)O (configuration not stated)
Data returned: F

Data request: # lookup: test call for COc1cc2c3cc1Oc1c(OC)c(OC)cc4c1C(Cc1ccc(O)c(c1)-c1cc(ccc1OC)CC3N(C)CC2)N(C)CC4 (configuration not stated)
Data returned: F

Data request: # lookup: test call for "c1c[nH]c(-c2cccc3nsnc23)c1"
Data returned: F

Data request: # lookup: test call for Cc1cc(C)c2c(=O)n(CC(O)CN3CCN(CCOCCO)CC3)sc2n1 (configuration not stated)
Data returned: F

Data request: # lookup: test call for "Cc1ccc(C2=NO[C@@H]3C(=O)N(c4ccc(Cc5ccc(N6C(=O)[C@H]7C(c8ccc(C)cc8)=NO[C@H]7C6=O)cc5)cc4)C(=O)[C@H]23)cc1"
Data returned: F

Data request: # lookup: test call for "O=c1[nH]c2nccn2c(Cl)c1Br"
Data returned: F

Data request: # lookup: test call for CN(CCN1CCCC1)C1CCc2cc(Cl)c(Cl)cc2C1 (configuration not stated)
Data returned: F

Data request: # lookup: test call for "OCCN(CCO)c1ccc2c(C(F)(F)F)cc(C(F)(F)F)nc2n1"
Data returned: F

Data request: # lookup: test call for "NC(=O)SCC(=O)Nc1ccc2ncccc2c1"
Data returned: F

----------
System: BT-549
Experiment: NCI tumour cell line growth inhibition, 48 h
Calls of active or inactive are those of the source. Rule as the data show it: active = GI50 up to about 1.1 µM and inactive = higher. Where a SMILES comes first, the peptide text is derived from it. The star is where a group is joined. Boc = CC(C)(C)OC(=O)*; OBn = c1ccc(CO*)cc1
Give measured GI50 for each item. Keep answers brief.

Data request: # query: GI50 of entry CC1=NNC(=O)[C@H]2[C@H]1CCC1[C@@H]2CC[C@]2(C)[C@@H](O)CC[C@@H]12 (some centres undefined)
Data returned: > 100 µM (inactive)

Data request: # query: GI50 of entry "O=C1CCSc2nc(-c3ccc4c(c3)OCO4)nn21"
Data returned: > 10 µM (inactive)

Data request: # query: GI50 of entry CCC(C)N1CN(c2ccccc2)C2(CCN(CCCC(=O)c3ccc(F)cc3)CC2)C1=O (centres undefined)
Data returned: 13.1 µM (inactive)

Data request: # query: GI50 of entry "CC(C)C(=O)/C=C/c1ccc(Cl)cc1Cl"
Data returned: 4.41 µM (inactive)

Data request: # query: GI50 of entry "Nc1ccc(Cc2c(N)[nH]c(=O)[nH]c2=O)cc1"
Data returned: > 100 µM (inactive)

Data request: # query: GI50 of entry CC(C)CC(NC(=O)OC(C)(C)C)C(=O)N1CCCC1C(=O)OCc1ccccc1 (stereo not drawn) (Boc-Leu-Pro-OBn; configuration not given here)
Data returned: > 100 µM (inactive)

Data request: # query: GI50 of entry "CCCC(=O)Nc1cn(COC)c(C(=O)N2C[C@@H]3C[C@]34C2=CC(=O)c2[nH]cc(C)c24)n1"
Data returned: 7.74 µM (inactive)

Data request: # query: GI50 of entry "ClCCCN1CCN(CCCl)CC1"
Data returned: 124 µM (inactive)

Data request: # query: GI50 of entry "O=C(c1c(Cl)cc(Cl)cc1Cl)N(Cc1cccnc1)C(=S)N(Cc1cccnc1)C(=O)c1c(Cl)cc(Cl)cc1Cl"
Data returned: 2.98 µM (inactive)

Hello, the source for this data is ChEMBL document CHEMBL1201862, in case you need it.
